Just for reference, PubChem BioAssay (NCI) is where these values come from.

Assay: NCI Yeast Anticancer Drug Screen. Data for the mlh1 rad18 strain (AID 175)
Conditions: S. cerevisiae mlh1 rad18 strain growth inhibition; at 50.0 µM; hits give high values
Compounds without any hit were thinned out: in the full panel of roughly 79,000, 15% have a hit. Where a SMILES comes first, the peptide text is derived from it. [ ]: non-standard residue; d: D form. Hpg = N[CH](C(=O)O)c1ccc(O)cc1
Assign Condition met to entries whose growth inhibition meets or exceeds 10%; assign Condition not met to the rest.

# compound, cat
data = [
    ("C=NC1CCCCC1", "Condition not met"),
    ("COC(=O)C1CC2CC1C1C2SC(F)(F)C1(F)F (stereo unspecified)", "Condition met"),
    ("CC(C)(C)c1ccc(O)c(CN(Cc2cc(C(C)(C)C)ccc2O)c2ccccc2)c1", "Condition met"),
    ("O=C1/C(=C/c2ccc(O)c(CN3CCCCC3)c2)CCC/C1=C\\c1ccc(O)c(CN2CCCCC2)c1", "Condition met"),
    ("Cc1n(C)c(C(O)c2ccccc2)c(Br)[n+]1C (stereo unspecified)", "Condition met"),
    ("COc1ccccc1C(=O)NO", "Condition not met"),
    ("CCOC(=O)c1ccc(Nc2nc3ccccc3nc2C(=O)OCC)cc1", "Condition not met"),
    ("CCCCC(CC)CN(CC(CC)CCCC)C(=O)C(C)OC(=O)C(CC)CCCC (stereo unspecified)", "Condition met"),
    ("CC(C)CC(N)C(=O)NC(C(=O)O)c1ccc(O)cc1 (stereo unspecified) (H-Leu-[Hpg]-OH; configuration not given here)", "Condition met"),
    ("O=C1CS/C(=N/C(=O)Nc2ccc(Cl)cc2)N1", "Condition met"),
    ("Cc1cc(Cl)c(=O)n(-c2ccccc2)n1", "Condition not met"),
]

----------
Experiment: NCI Yeast Anticancer Drug Screen. Data for the cln2 rad14 strain (AID 165)
Settings: S. cerevisiae cln2 rad14 strain, at 50.0 µM
The panel holds about 79,000 compounds, 15% with a hit somewhere; the sample as a whole holds those more often. Calls of active or inactive are those of the source. Cut-off read from the data, not from the text of the source: active = growth inhibition above about 70%; inactive = the rest. *1 amine or outer side, *2 acyl side, *3 side chain or, on linkers, in order; H or OH if unused. Where a SMILES comes first, the peptide text is derived from it. [ ]: non-standard residue; d: D form. X12 = NC(N)=NCC(O)CC(N[*:1])C(=O)[*:2]; Orn = NCCC[CH](N)C(=O)O
Outcomes: active, inactive

# compound, cat
rows = [
    ("C(=N/N=C(/C(=N/N=C/c1ccccc1)c1ccccc1)c1ccccc1)\\c1ccccc1", "inactive"),
    ("Cc1ccccc1NP1(Nc2ccccc2C)=NP(Nc2ccccc2C)(Nc2ccccc2C)=NP(Nc2ccccc2C)(Nc2ccccc2C)=NP(Nc2ccccc2C)(Nc2ccccc2C)=N1", "inactive"),
    ("CC(C)(C)NC(=S)N/N=C/c1ccccn1", "active"),
    ("CCOC(=O)C(Cc1c[nH]c2ccccc12)NC(=O)C1(O)C(O)C2(CC)C=CCN3CCC4(c5cc(C6(C(=O)OC)CC7CC(CC)CN(CCc8c6[nH]c6ccccc86)C7)c(OC)cc5N(C)C14)C32 (centres undefined)", "inactive"),
    ("CC1=C2N3C[C@@H](n4c(=O)n(C)c(=O)n43)C23CCC1n1c(=O)n(C)c(=O)n13", "inactive"),
    ("Cn1c([N+](=O)[O-])cnc1COS(=O)(=O)c1cccnc1", "inactive"),
    ("CC(=O)n1c(N)nc2ccccc21", "inactive"),
    ("C[C@H](CCC(=O)O)[C@H]1CC[C@H]2[C@@H]3CC[C@@H]4C[C@H](O)CC[C@]4(C)[C@H]3CC[C@]12C", "inactive"),
    ("CC(O)C(NC(=O)C(CCCN)NC(=O)C(CC(O)CN=C(N)N)NC(=O)C(N)CCCN=C(N)N)C(=O)NC(CCCN)C(=O)NC(CC(O)CN=C(N)N)C(=O)NC(Cc1ccc(O)cc1)C(=O)O (centres undefined) (H-R[X12][Orn]T[Orn][X12]Y-OH; configuration not given here)", "inactive"),
    ("O=C(NC(CSC(=O)OCc1ccccc1)C(=O)Oc1ccc([N+](=O)[O-])cc1)OCc1ccccc1 (centres undefined)", "inactive"),
    ("CCN(CC)CC#CCCCN(CC)CC", "inactive"),
    ("NC(=O)NC(=O)OCCOC(=O)NC(N)=O", "inactive"),
    ("CCOC(=O)C(=O)Cc1cnccn1", "inactive"),
    ("N#CCN1CCOCCOCCN(CC#N)CCOCCOCC1", "inactive"),
    ("CCOC(=O)/C=C/c1ccc([N+](=O)[O-])cc1", "inactive"),
    ("C[C@H]1C(=O)c2c(cc(O)c(C3OC(CO)C(O)C(O)C3O)c2O)OC1c1ccc(O)c(O)c1 (some centres undefined)", "inactive"),
    ("Cc1ccc(S(=O)(=O)N/N=C/C(C)(c2ccccc2)c2ccccc2)cc1", "inactive"),
    ("C[N+]1(CCc2ccccc2)CCOCC1", "inactive"),
    ("CC(=O)Nc1ccc2c(c1)C(=O)c1ccc(S(C)(=O)=O)cc1-2", "inactive"),
]
